RUN DESCRIPTION: recombinant UMI read abundance after kanamycin selection (control-corrected) (log10(CPM+1)); higher = more efficient recombination; extreme values may be limits of the assay; sequences stand for … in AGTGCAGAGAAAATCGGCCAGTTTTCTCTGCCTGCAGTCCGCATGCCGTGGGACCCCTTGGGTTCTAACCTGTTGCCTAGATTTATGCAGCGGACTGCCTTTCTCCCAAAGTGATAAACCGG…AGGTTGGTTTCACT; site = the 11-nt donor;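 further: IS621 bridge recombinase in Escherichia coli cells against a fixed T5 target plasmid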
Please note: label 1 applies when recombinant UMI read abundance (log10) is 0.01 or greater, and label 0 applies otherwise.

| SEQUENCE RECORD | ASSIGNED LABEL |
| --- | --- |
| ATGTATACATGGACCGGTTTTCCCGGTAATCCGTATTTGAC (site ATTTATACTGT) | label 1 |
| TGGATTTCATGGACCGGTTTTCCCGGTAATCCGTATTTGCA (site TGGATTTCTTG) | label 1 |
| CGAGGACCATGGACCGGTTTTCCCGGTAATCCGTATTTGCG (site CGAGGACCTCA) | label 0 |
| GCATTACCATGGACCGGTTTTCCCGGTAATCCGTATTTGTC (site GCATTACCTGA) | label 0 |
| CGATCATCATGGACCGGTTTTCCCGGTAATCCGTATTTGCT (site TGATCCTCTAG) | label 0 |
| AATAGGACATGGACCGGTTTTCCCGGTAATCCGTATTTGCG (site AATAGGACTCG) | label 1 |
| CGTTACACATGGACCGGTTTTCCCGGTAATCCGTATTTGAG (site CGTTATACTCT) | label 1 |
| GGCCACCCATGGACCGGTTTTCCCGGTAATCCGTATTTGTA (site GGCCACCCTCA) | label 1 |
| CCCCGTACATGGACCGGTTTTCCCGGTAATCCGTATTTGCT (site CCCCGTACTAG) | label 1 |
| GCGACATCATGGACCGGTTTTCCCGGTAATCCGTATTTGTG (site GCGACATCTCA) | label 1 |
| CGGGCATCATGGACCGGTTTTCCCGGTAATCCGTATTTGCT (site CGGCCATCTAG) | label 0 |
| CGGGAATCATGGACCGGTTTTCCCGGTAATCCGTATTTGAT (site CGGGAAACTAT) | label 1 |
